- assayed_system: human c-Met-Fc (c-Met ectodomain, IgG1-Fc fusion) (Homo sapiens, UniProt P08581 25-932)
- Sequence (P08581 25-932): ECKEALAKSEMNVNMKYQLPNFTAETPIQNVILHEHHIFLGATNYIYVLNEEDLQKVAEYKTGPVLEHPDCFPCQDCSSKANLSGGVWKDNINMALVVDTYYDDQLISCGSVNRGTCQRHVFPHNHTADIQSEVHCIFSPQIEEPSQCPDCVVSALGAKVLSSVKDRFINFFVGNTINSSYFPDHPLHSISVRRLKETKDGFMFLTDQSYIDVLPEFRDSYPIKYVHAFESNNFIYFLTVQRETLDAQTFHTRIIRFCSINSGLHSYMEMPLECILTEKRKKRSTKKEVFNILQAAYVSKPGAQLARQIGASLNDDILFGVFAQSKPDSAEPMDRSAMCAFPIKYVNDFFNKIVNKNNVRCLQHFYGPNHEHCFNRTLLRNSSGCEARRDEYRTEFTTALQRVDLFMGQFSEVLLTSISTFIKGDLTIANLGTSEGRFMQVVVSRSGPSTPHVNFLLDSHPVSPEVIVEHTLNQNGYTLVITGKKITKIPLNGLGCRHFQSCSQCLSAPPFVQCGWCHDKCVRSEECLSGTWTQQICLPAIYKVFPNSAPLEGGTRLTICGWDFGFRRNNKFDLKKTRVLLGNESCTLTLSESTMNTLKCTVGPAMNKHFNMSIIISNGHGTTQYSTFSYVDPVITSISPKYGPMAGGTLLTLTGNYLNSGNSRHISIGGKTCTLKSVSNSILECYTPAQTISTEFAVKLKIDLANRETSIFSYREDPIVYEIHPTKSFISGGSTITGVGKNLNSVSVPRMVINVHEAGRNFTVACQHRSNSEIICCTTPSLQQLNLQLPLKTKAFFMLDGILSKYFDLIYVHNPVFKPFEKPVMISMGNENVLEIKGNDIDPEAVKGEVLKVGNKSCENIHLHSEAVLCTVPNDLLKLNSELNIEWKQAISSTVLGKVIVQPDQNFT
- assay_text: competition ELISA; competes with immobilized HGF; Fig 2 legend gives 72 nM; Dotblot: nitrocellulose filter, 37 C (competition, 30 min); BLI: DPBS, 37 C, Protein A tips, 1:1 fit; ELISA: PBS/1% BSA; flow cytometry: PBS/1% BSA, 4 C, 30 min
- condition_label: protein: recombinant; tags: Fc (IgG1); chain copies: 2; label: 32P (dotblot)

>  <binder>
CLN3-T (SL1) (ssDNA) DNA: GAAAAGTTATCAGGCTGGATGGTAGCTCGGTCGGGGTGGGTGGGTTGGCAAGTCTGATT

>  <IC50, nM>
74

$$$$
